method-notes: NCI Yeast Anticancer Drug Screen. Data for the cln2 rad14 strain (AID 165);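 also: 0% = growth equal to vehicle treated cultures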
experimental-setup: S. cerevisiae cln2 rad14 strain, at 50.0 µM, hits give high values
The panel holds about 79,000 compounds, 15% with a hit somewhere; the sample as a whole holds those more often.
growth inhibition reference
Give just the number in %; leave the unit off.

Some solved entries appear below for comparison.
molecule	growth inhibition (%)
COC1C(C)OC(OC2CC(C)(O)Cc3cc4c(c(O)c32)C(=O)c2c(O)cc3c(c2C4=O)OC2OC3(C)C(O)C(N(C)C)C2O)C(OC)C1(C)OC (stereo not drawn)	88
COC1=CC(C)(C)C=C([Se][Se]C2=CC(C)(C)C=C(OC)C2=O)C1=O	68.5

Prompt: growth inhibition for COc1c(Br)cc(/C=C(/C)[N+](=O)[O-])cc1Br ?
Completion: 71.2

Prompt: growth inhibition for COC(=O)C1=C(C(=O)OC)C2OC1c1cc3ccccc3cc12 ?
Completion: 99.4

Prompt: growth inhibition for [N-]=[N+]=NS(=O)(=O)c1cccc([N+](=O)[O-])c1 ?
Completion: 90.8

Prompt: growth inhibition for c1ccc2c(NCCCCCCNc3c4ccccc4nc4ccccc34)c3ccccc3nc2c1 ?
Completion: 8.4

Prompt: growth inhibition for COc1cc(C[C@H]2c3cc(OC)c(OC)c(O)c3CCN2C)c(Oc2cc3c(cc2OC)-c2c(OC)c(OC)c(OC)c4c2C(C3)N(C)CC4)cc1OC (stereo partly drawn) (tested in a mixture with another compound) ?
Completion: 44.8

Prompt: growth inhibition for C[C@H]1C/C=C/[C@H]2[C@@H]3O[C@]3(C)[C@@H](C)[C@H]3[C@H](Cc4ccccc4)NC(=O)[C@]32OC(=O)O/C=C/[C@@](C)(O)C1=O ?
Completion: 67.3

* * *

growth inhibition reference
method-notes: NCI Yeast Anticancer Drug Screen. Data for the bub3 strain (AID 167)
experimental-setup: S. cerevisiae bub3 mutant strain, at 50.0 µM (retest, dose inferred, filed as 5.0), hits give high values
About 79,000 compounds went through this panel and 15% of them were active in at least one assay; those are over-represented in the sample as a whole.
Give just the number in %; leave the unit off.

molecule	growth inhibition / %
CO[C@H](/C(C)=C/C=C/C(C)=C/c1coc(C)n1)[C@H](C)[C@H]1C[C@@H](O)[C@@]2(C)O[C@H]2/C=C/[C@@H](C)[C@@H]2C[C@@H](CC(=O)O2)C[C@H]2O[C@@H]2C(=O)O1	95

Would you kindly look at the next entry?
Prompt: growth inhibition for CC(C)NCC(O)c1ccc(O)c(O)c1.[Pt].c1ccc([PH+](c2ccccc2)c2ccccc2)cc1.c1ccc([PH+](c2ccccc2)c2ccccc2)cc1 ?
Completion: 98

* * *

growth inhibition reference
method-notes: NCI Yeast Anticancer Drug Screen. Data for the sgs1 mgt1 strain (AID 161);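 also: 0% = growth of cultures given vehicle only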
experimental-setup: S. cerevisiae sgs1 mgt1 strain, at 50.0 µM, hits give high values
Compounds without any hit were thinned out: in the full panel of roughly 79,000, 15% have a hit.
Give just the number in %; leave the unit off.

Some solved entries appear below for comparison.
compound	numeric-value
Oc1ccc(Cl)cc1Cc1ccccc1	94.4
Oc1c(-c2ccccc2)cc(-[n+]2c(-c3ccccc3)cc(-c3ccccc3)cc2-c2ccccc2)cc1-c1ccccc1	89.6
O=C(CBr)OCc1ccccc1	99.7

Would you kindly look at the next entry?
Prompt: growth inhibition for ClC1=C(Cl)C(Cl)(Cl)SS1 ?
Completion: 92.1

* * *

method-notes: NCI Yeast Anticancer Drug Screen. Data for the mec2-1 strain (AID 157)
experimental-setup: S. cerevisiae mec2-1 strain, at 50.0 µM, hits give high values
The panel holds about 79,000 compounds, 15% with a hit somewhere; the sample as a whole holds those more often.
assay-endpoint: growth inhibition (%)
Give just the number in %; leave the unit off.

Some solved entries appear below for comparison.
compound	readout-units	growth inhibition
CC1([CH2][Hg][I])CS(=O)(=O)CC(C)([CH2][Hg][I])O1 (centres undefined)	%	98
O=S(=O)(F)c1ccc(Cl)cc1C[P+](c1ccccc1)(c1ccccc1)c1ccccc1	%	19.9
O=c1ccn(C2OC(CO)C(O)C2O)c(=O)[n]1[Hg][c]1ccccc1 (centres undefined)	%	89.7

Prompt: growth inhibition for O=[N+]([O-])/C=C/c1ccccc1 ?
Completion: 99.2

Prompt: growth inhibition for [Cl][Sn]([c]1ccccc1)[c]1ccccc1 ?
Completion: 85.8

Prompt: growth inhibition for O=C1C=CC(=O)N1c1cccc2ccccc12 (tested in a mixture with another compound) ?
Completion: 2.7

Prompt: growth inhibition for NP(N)(=O)Nc1ccccc1 ?
Completion: -22.4

Prompt: growth inhibition for CCC[CH2][Pb]([Cl])([CH2]CCC)[CH2]CCC ?
Completion: 92

Prompt: growth inhibition for CC1C2C=CC1C(c1c3ccc(=O)c(O)c-3oc3c(O)c(O)ccc13)C2C(=O)O (centres undefined) ?
Completion: 47.8

* * *

method-notes: NCI Yeast Anticancer Drug Screen. Data for the mec2-1 strain (AID 157)
experimental-setup: S. cerevisiae mec2-1 strain, at 50.0 µM (retest, dose inferred, filed as 5.0), hits give high values
This is part of a sample that, as a whole, favours compounds with a hit. Of some 79,000 tested, about 15% had one in any assay. Active and inactive are the calls of the source. No stated cut-off is given here; in the data, active means growth inhibition above about 70%; inactive means the rest.
growth inhibition reference

Some solved entries appear below for comparison.
                                   compound          result
0  CCC1(O)C(=O)OCc2c1cc1n(c2=O)Cc2c-1nc1ccccc1c2OC (stereo not given)  62% (inactive)
1  N#Cc1ccc(N=Cc2c([O-])ccc3ccccc23)cc1.[C-]#[O+].[C-]#[O+].[Ir]   1% (inactive)
2               CC(C)(C)CC(C)(C)c1ccc(O)cc1    99% (active)
3  OC(c1ccc(Cl)cc1)C(Cl)(Cl)Cl (stereo not given)    98% (active)
4  CCC[As](CCC)SC1CCC2(C)C(=CCC3C4CCC(=O)C4(C)CCC32)C1 (stereo not given)    87% (active)
5  CC1(C)OC2OC3C(CN(CCCl)Cc4ccccc4)OC(c4ccccc4)OC3C2O1 (stereo not given)  -4% (inactive)
6    COc1cc(N(CCCl)CCCl)ccc1C=Nc1cccc(Cl)c1  51% (inactive)
7  CNC(=O)OCC1C2=C(C(=O)C(C)=C(N)C2=O)N2CC3C(N3C)C12OC (stereo not given)  61% (inactive)

Prompt: growth inhibition for COC(COC(=O)N1CCN(C=O)CC1)C1=C(N2CC2)C(=O)C(C)=C(N2CC2)C1=O (stereo not given) ?
Completion: 35% (inactive)

Prompt: growth inhibition for CCC1CC2C3Cc4ccc(OC)c(O)c4C2(CCN3C)CC1=O (stereo not given) ?
Completion: -2% (inactive)

* * *

method-notes: NCI Yeast Anticancer Drug Screen. Data for the CLN2oe strain (AID 163);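 also: 0% = growth of vehicle-only control cultures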
experimental-setup: S. cerevisiae CLN2oe strain, at 100.0 µM, hits give high values
About 79,000 compounds went through this panel and 15% of them were active in at least one assay; those are over-represented in the sample as a whole.
Response key: 1 means growth inhibition >= 70%; 0 means growth inhibition < 70%.

>>> print(df.to_string())
                                     smiles  classification
0  CC1=C(CO)C2=C(C)C3(CC3)[C@@](C)(O)C(=O)C2=C1               0
1  COc1cc(O)c2c(O)c3c(c4c2c1[C@]1(C4)C(C)=CCCC1(C)C)[C@H](O)[C@@]1(O)CC(=O)C(C(N)=O)=C(O)[C@@]1(O)C3=O               1
2       NCCc1ccc(OCc2ccccc2)c(OCc2ccccc2)c1               1

# next compound below
Prompt: Identify whether the reported growth inhibition of the following compound is 70% or greater: O=P(Oc1ccc(Cl)cc1)(Oc1ccc(Cl)cc1)N1CC1
Completion: 0

* * *

method-notes: NCI Yeast Anticancer Drug Screen. Data for the rad50 strain (AID 155);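 also: 0% = growth of vehicle-only cultures of the same strain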
experimental-setup: S. cerevisiae rad50 strain growth inhibition; at 50.0 µM (retest, dose inferred, filed as 5.0)
This is part of a sample that, as a whole, favours compounds with a hit. Of some 79,000 tested, about 15% had one in any assay. Activity calls are given as the source filed them. Cut-off read from the data, not from the text of the source: active = growth inhibition above about 70%; inactive = the rest.
A correct response names exactly one class from active, inactive

>>> df
                                   molecule  classification
0  [Br][Sn]([CH]1CCCCC1)([CH]1CCCCC1)[CH]1CCCCC1          active
1  CCC[CH2][Sn]([F])([CH2]CCC)[O][Sn]([F])([CH2]CCC)[CH2]CCC          active
2  O=[N+]([O-])[O][Tl]([c]1ccccc1)[c]1ccccc1        inactive
3  CCCCCCCC/C=C\CCCCCCCCN1CC(C(=O)[O][Pb]([CH2]C)([CH2]C)[CH2]C)CC1=O (stereo not given)          active
4  CCCCC1C(=O)NC(=S)N(c2ccccc2)C1=O (stereo not given)        inactive

Prompt: Query: recorded result category for Cl[C](Cl)(Cl)[Hg][c]1ccccc1 in this test
Completion: active
